Hey, just so you know, these numbers are from paper PMC6528641.

Target: AChE (Electrophorus electricus)
Sequence (O42275 24-633): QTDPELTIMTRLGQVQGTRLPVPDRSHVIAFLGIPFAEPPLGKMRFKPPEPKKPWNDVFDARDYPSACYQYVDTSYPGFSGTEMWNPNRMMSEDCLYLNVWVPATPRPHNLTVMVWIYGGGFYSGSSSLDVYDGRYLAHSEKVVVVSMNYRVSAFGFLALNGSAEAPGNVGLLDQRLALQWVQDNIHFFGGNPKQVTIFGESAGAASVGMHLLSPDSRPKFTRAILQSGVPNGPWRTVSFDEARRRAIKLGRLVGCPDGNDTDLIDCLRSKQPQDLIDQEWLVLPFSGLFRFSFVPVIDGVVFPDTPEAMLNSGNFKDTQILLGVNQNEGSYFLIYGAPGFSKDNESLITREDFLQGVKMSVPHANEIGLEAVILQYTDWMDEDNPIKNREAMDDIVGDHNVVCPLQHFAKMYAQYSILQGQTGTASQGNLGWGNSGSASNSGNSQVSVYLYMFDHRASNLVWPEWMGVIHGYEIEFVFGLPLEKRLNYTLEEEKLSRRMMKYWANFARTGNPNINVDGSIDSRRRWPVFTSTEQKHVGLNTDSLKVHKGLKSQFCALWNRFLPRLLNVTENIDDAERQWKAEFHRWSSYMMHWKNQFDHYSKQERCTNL
pIC50: −log10 of the molar value.
Quick rule for you: pIC50 at 4 or higher means MET, lower means NOT MET.

Consider the worked cases shown below.
>  <compound>
O=CNC1CC(c2ccncc2)Nc2c1ccc1cccnc21 (stereo not shown) [4 d]

>  <category.label>
MET

$$$$
>  <compound>
O=CNC1CC(c2ccccc2)Nc2c1ccc1cccnc21 (stereo not shown) [4 a]

>  <category.label>
NOT MET

$$$$
>  <compound>
O=CNC1CC(c2cccnc2)Nc2c1ccc1cccnc21 (stereo not shown) [4 c]

>  <category.label>
NOT MET

$$$$
>  <compound>
O=CNC1CC(c2ccccn2)Nc2c1ccc1cccnc21 (stereo not shown) [4 b]

>  <category.label>
NOT MET

$$$$

Query string: Quick check: does COc1ccc(C2CC(NC=O)c3ccc4cccnc4c3N2)cc1 (stereo not shown) [4 e] have pIC50 greater than or equal to 4?
Result string: NOT MET

Query string: Please indicate if the recorded pIC50 for Nc1cccc2cccnc12 [8‐amino‐quinoline, reference compound] meets or exceeds 4.
Result string: NOT MET
